Catalogue of SI (Ca9–22) readings, one per entry.
# Test system: Ca9–22 human oral squamous cell carcinoma cell line (gingiva)
# assay-remarks: Cytotoxicity assay (MTT), Ca9-22
# condition-parameters: average CC50 of nonmalignant cells / CC50 towards Ca9–22
Respond using a number only.

Example entries begin here.
NS(=O)(=O)c1ccc(N2N=C(c3ccc(O)cc3)CC2c2ccc([N+](=O)[O-])cc2)cc1 (stereo not drawn) [Compound 8]    1.7
NS(=O)(=O)c1ccc(N2N=C(c3ccc(O)cc3)CC2c2ccccc2)cc1 (stereo not drawn) [Compound 1]    1.4
NS(=O)(=O)c1ccc(N2N=C(c3ccc(O)cc3)CC2c2ccc(Cl)cc2Cl)cc1 (stereo not drawn) [Compound 5]    1.7

q: Name the recorded SI (Ca9–22) of the compound listed here: NS(=O)(=O)c1ccc(N2N=C(c3ccc(O)cc3)CC2c2ccc(F)cc2)cc1 (stereo not drawn) [Compound 6]
a: 1.4

q: Dear colleague, please send me the reported SI (Ca9–22) for NS(=O)(=O)c1ccc(N2N=C(c3ccc(O)cc3)CC2c2ccc(Cl)cc2)cc1 (stereo not drawn) [Compound 4] when you can.
a: 2.2

q: Assign SI (Ca9–22) to the following record: Cc1ccc(C2CC(c3ccc(O)cc3)=NN2c2ccc(S(N)(=O)=O)cc2)cc1 (stereo not drawn) [Compound 2]
a: 1.7

----------
# assay-remarks: Cytotoxicity assay (MTT), HGF
# condition-parameters: human, normal gingival fibroblasts (HGF)
One threshold, 90 µM, splits the recorded CC50 at 48 h values: lower ones are class 1, equal or higher ones are class 0.

q: API: query returns whether the compound falls strictly under 90 µM in CC50 at 48 h. Query: Cc1ccc(C2CC(c3ccc(O)cc3)=NN2c2ccc(S(N)(=O)=O)cc2)cc1 (stereo not shown)
a: class 0

q: State whether 90 µM exceeds CC50 at 48 h recorded for NS(=O)(=O)c1ccc(N2N=C(c3ccc(O)cc3)CC2c2ccccc2)cc1 (stereo not shown) .
a: class 0

q: Confirm or reject: CC50 at 48 h of NS(=O)(=O)c1ccc(N2N=C(c3ccc(O)cc3)CC2c2ccc([N+](=O)[O-])cc2)cc1 (stereo not shown) lies strictly below 90 µM
a: class 1

q: # strict comparison: is reported CC50 at 48 h < 90 µM? input = O=c1[nH]cc(F)c(=O)[nH]1 [Compound 5-FU, 5-Fluorouracil, reference compound]
a: class 0

q: I wonder whether NS(=O)(=O)c1ccc(N2N=C(c3ccc(O)cc3)CC2c2cccs2)cc1 (stereo not shown) has CC50 at 48 h below 90 µM. Can you tell?
a: class 0

q: Regarding COc1ccc(C2CC(c3ccc(O)cc3)=NN2c2ccc(S(N)(=O)=O)cc2)cc1 (stereo not shown) , kindly confirm whether its CC50 at 48 h is beneath 90 µM.
a: class 0

q: Does NS(=O)(=O)c1ccc(N2N=C(c3ccc(O)cc3)CC2c2ccc(Cl)cc2Cl)cc1 (stereo not shown) have CC50 at 48 h strictly under 90 µM?
a: class 1

q: Item NS(=O)(=O)c1ccc(N2N=C(c3ccc(O)cc3)CC2c2ccc(F)cc2)cc1 (stereo not shown) : CC50 at 48 h beneath 90 µM, strictly?
a: class 1

q: Is it true that CC50 at 48 h reported for NS(=O)(=O)c1ccc(N2N=C(c3ccc(O)cc3)CC2c2ccc(Br)cc2)cc1 (stereo not shown) is less than 90 µM?
a: class 1
